These entries and their values trace back to PubChem BioAssay (NCI).

- System: NCI-H226 lung
- measurement.protocol: NCI tumour cell line growth inhibition, 48 h
observed.property: TGI (µM)
Give bare numbers, in µM.

chem.smiles | TGI, µM
COc1ccc2c(c1)[nH]c1c(/C=C/c3ccccc3)nccc12 | 53.1

Now, please, on to the next molecule.
Inquiry: For the molecule "CN(C)CCN(C)c1ccc2c(=O)n(CCN(C)C)c(=O)n3c4ccccc4c(=O)c1c23" , report TGI.
Reply text: 1.59

====

- System: NCI-H460 lung
Returns: one label drawn from active, inactive

As a guide, the following entries are already answered.
compound | discrete.label
COC1=CC(c2ccc[nH]2)=N/C1=C\c1[nH]c(C)c(C(=O)CCCCC(=O)NC(C)(C)C)c1C | inactive
COc1ccc(/C=C/C(=O)c2ccc(O)c(CN3CCN(c4cc5c(cc4F)c(=O)c(C(=O)O)cn5C4CC4)CC3)c2)cc1 | inactive
CCCCCCCCC/C=C/C=C/C(=O)NCC(=O)NC1C(O)C(O)C(Nc2ncnc3nc[nH]c23)OC1C(O)CO (stereo not drawn) | active

Inquiry: What did the test return for "O=c1cc(-c2ccccc2F)[nH]c2ccc(N3CCCC3)cc12" ?
Reply text: active

====

A short record of GI50 observed with MDA-MB-435 follows.

Answered cases to consult:
chem.smiles | GI50
C=C1/C(=C\C=C2/CCC[C@]3(C)[C@@H]([C@H](C)CCCC(C)(C)O)CC[C@@H]23)C[C@@H](OC(=O)CBr)C[C@@H]1O | 4.22 µM
Cc1ccc(-c2nc(C#N)c(S(=O)(=O)n3nc(C)cc3N)o2)cc1 | 10.5 µM
COc1cc(Nc2c(C#N)cnc3cc(OCCCN4CCN(C)CC4)c(OC)cc23)c(Cl)cc1Cl | 1.97 µM

Moving on to another compound below.
Inquiry: State its GI50: "Cc1cc(NCCN(C(C)C)C(C)C)nc(/N=C(\N)Nc2ccc(Cl)c(C(F)(F)F)c2)n1"
Reply text: 0.196 µM

====

- System: NCI-H23 lung
- measurement.protocol: NCI tumour cell line growth inhibition, 48 h; in the data active = GI50 below about 0.43 µM; inactive = the rest
Respond using exactly one of the listed classes: active, inactive

Would you please look over these solved cases?
compound | discrete.label
N.N.N.N.N.[Cl-].[Co+3].c1ccc(-c2nn[n-]n2)cc1 | inactive
Cc1cc(C(=C2C=CC(=Nc3ccccc3)C=C2)c2ccc(Nc3ccccc3)cc2)ccc1N | active
Cc1cc(Cl)ccc1Nc1nc(C(F)(F)F)ccc1C(=O)N/N=C/c1ccc(Cl)cc1 | inactive
Nc1nc(N)c2nc(CNc3ccc(C(=O)NC(CC(=O)O)C(=O)O)cc3)cnc2n1 (configuration not stated) | inactive
C[C@]12CCc3sc(NCCc4ccccc4)nc3C1=CC[C@@H]1[C@@H]2CC[C@]2(C)C(=O)CC[C@@H]12 | inactive
CC1OC(n2c3ccccc3c3c4c(c5c6ccccc6[nH]c5c32)C(=O)N(CCN[C@@H]2CCC[C@H]2N)C4=O)CC(O)C1O (some centres not stated) | inactive

Inquiry: Please share the test call associated with "COc1cccc(C2=C(c3c(C)n(C)c4ccccc34)C(=O)NC2=O)c1" .
Reply text: inactive

Inquiry: What did this assay record as the result for "CCOC(=O)c1cc2c(n1Cc1cccc(OC)c1)-c1oncc1CCC2" ?
Reply text: inactive

Inquiry: Outcome logged for "Cc1ccc(-c2nc(C#N)c(S(=O)(=O)n3nc(C)cc3N)o2)cc1" in this assay:
Reply text: inactive

Inquiry: Outcome logged for Cc1ccc(C(CC(=O)c2ccccc2)C2C(=O)NC(=O)NC2=O)cc1 (configuration not stated) in this assay:
Reply text: inactive

Inquiry: Hi, do you know how "O=C(Nc1cccc(-n2cc(-c3ccncc3)c(-c3ccc(Cl)c(O)c3)n2)c1)c1ccc(N2CCOCC2)c(C(F)(F)F)c1" came out in this test?
Reply text: inactive

Inquiry: How did this test come out for "CC1(N)CCN(c2cccnc2NC(=O)c2nc(-c3ncccc3C(F)(F)F)cnc2N)CC1" ?
Reply text: inactive

====

- Tested on: HOP-18 NSCLC
- measurement.protocol: NCI tumour cell line growth inhibition, 48 h
observed.property: TGI

Would you please look over these solved cases?
molecule | TGI
CN(C)CC(CC1=C(CC(CN(C)C)N(C)C)CCC1)N(C)C (stereo not given) | > 100 µM
OCC1C(/C=C/c2ccoc2)ON2CCCC12 (stereo not given) | 86 µM
O=C1C2C3C=C4c5ccccc5N(c5ccccc5)C4(C2C(=O)N1c1ccc(Cl)cc1)[C@H]1C(=O)N(c2ccc(Cl)cc2)C(=O)[C@@H]31 (stereo not given in full) | > 100 µM
CN(C)C(=S)/N=c1\ssc(=S)n1Cc1ccccc1 | > 100 µM

Let's switch to this molecule now.
Inquiry: State TGI (HOP-18 NSCLC) of "O=C(O/C(=C(/N=Nc1ccccc1)c1ccccc1)c1ccccc1)c1ccccc1" .
Reply text: > 100 µM

====

- Test system: RPMI-8226 leukemia
- measurement.protocol: NCI tumour cell line growth inhibition, 48 h; in the data active = GI50 below about 0.43 µM; inactive = the rest
# valid calls are y for active, n for inactive; nothing else

Inquiry: Dear colleague, could you share the recorded outcome for C1COCCN1.C1COCCN1.NC1CCCCC1N.[Cl-].[Pt+2] (stereo not drawn) when you have a moment?
Reply text: n

Inquiry: Would you mind telling me which call this test gave "COc1cc2c3c(n(CCCCN)c(=O)c2cc1OC)-c1cc2c(cc1C3=O)OCO2" ?
Reply text: y

Inquiry: What did the test return for "C=C1/C(=C\C=C2/CCC[C@]3(C)[C@@H]([C@H](C)CCCC(C)(C)O)CC[C@@H]23)C[C@@H](OC(=O)CBr)C[C@@H]1O" ?
Reply text: y

Inquiry: What did the test return for "COc1cc2c(cc1O)CC[C@@H]1[C@@H]2CC[C@]2(C)[C@@H](OCCN(C)C)CC[C@@H]12" ?
Reply text: y

Inquiry: Please indicate how the test categorized "CC1(N)CCN(c2cccnc2NC(=O)c2nc(-c3ncccc3C(F)(F)F)cnc2N)CC1" .
Reply text: n

Inquiry: How was "COc1cccc(C2=C(c3c(C)n(C)c4ccccc34)C(=O)NC2=O)c1" classified in this test?
Reply text: n

Inquiry: Per the assay record, what outcome was assigned to "COc1ccc(C(=O)/C=C/c2cccc([N+](=O)[O-])c2)c(OC)c1" ?
Reply text: n

Inquiry: Tell me the assay call for "C[C@]12CCc3sc(NCCc4ccccc4)nc3C1=CC[C@@H]1[C@@H]2CC[C@]2(C)C(=O)CC[C@@H]12" please.
Reply text: n

Inquiry: Hi, sorry to bother you, what did the test record for "CCOC(=O)c1cc2c(n1Cc1cccc(OC)c1)-c1oncc1CCC2" ?
Reply text: n

====

- System: SF-295 CNS
- measurement.protocol: NCI tumour cell line growth inhibition, 48 h
Use 8 µM as the dividing line for TGI, with the line itself on the 1 side and lower values as -1.

compound | discrete.label
N#Cc1c(-c2ccc([N+](=O)[O-])cc2)c(C#N)c(=O)n(NS(=O)(=O)c2ccccc2)c1-c1ccccc1 | 1
CCn1cc(C(=O)N/N=C/c2ccccc2)c(=O)c2cc(F)c(N3CCNC(C)C3)c(F)c21 (stereo not drawn) | -1
O=C(Nc1cccc(-n2cc(-c3ccncc3)c(-c3cc(O)cc(Cl)c3)n2)c1)Nc1ccc(Cl)c(C(F)(F)F)c1 | -1
O=S(=O)(Nc1ccc(Br)c(Cl)c1)c1ccc(-c2cnc(C3CC3)o2)cc1 | -1

Inquiry: Is it the case that "CCOC(=O)C1=NN(c2ccc(C)cc2)C2=CC(C)=NN(C)C(=S)N21" has TGI reaching or exceeding 8 µM?
Reply text: 1

====

- Tested on: A498 renal
- measurement.protocol: NCI tumour cell line growth inhibition, 48 h
observed.property: GI50

compound | GI50
C[C@]12CCc3sc(NCCc4ccccc4)nc3C1=CC[C@@H]1[C@@H]2CC[C@]2(C)C(=O)CC[C@@H]12 | 4.43 µM
COc1cccc(-c2nn(-c3ccccc3)cc2-c2ccnc(NCCCNC(=O)Nc3ccc(Cl)c(Cl)c3)c2)c1 | 2.15 µM
C=CCC1(O)c2ccccc2C(=O)c2c(NCCN(CC(=O)OCC)CC(=O)OCC)cccc21 (centres undefined) | > 100 µM

Please turn your attention to the following entry.
Inquiry: Return the recorded GI50 value; entry: "CCOC(=O)c1c2c(n(Cc3ccc(Cl)cc3Cl)c1C)-c1nc[nH]c1C(=O)C2=O"
Reply text: 19.7 µM

====

- System: NCI-H226 lung
- measurement.protocol: NCI tumour cell line growth inhibition, 48 h
Please respond with reported TGI for every item in the list.

The cases that follow already have their TGI on record.
compound | measured.value
COc1ccc(-c2nc(-c3ccccc3)c(-c3ccccc3)[nH]2)cc1OC1CCCC1 | > 100 µM
COc1cccc(-n2nc(C)c3c(N/N=C(\C)c4ccncc4)ncnc32)c1 | > 25 µM
CC[C@@H]1CC[C@@H]2[C@H](CC[C@]3(C)[C@@H](OS(=O)(=O)c4ccc(C)cc4)CC[C@@H]23)[C@H]1COS(=O)(=O)c1ccc(C)cc1 | > 100 µM
Cc1ccc(-c2nc(C#N)c(S(=O)(=O)n3nc(C)cc3N)o2)cc1 | 41.4 µM
C[C@H](NC(=O)c1ccc(CNC(=O)/C=C/c2cccc(Oc3ccccc3)c2)cc1)c1ccccc1 | > 100 µM

Fill in TGI for each of the 4 compounds listed.
1. COc1ccc(-n2cnc3c2NC(C)(C)N=C3C(N)=O)c(OC)c1
2. CCn1c(SCC(=O)NNC(=S)Nc2ccc([N+](=O)[O-])cc2)nc2ccccc2c1=O
3. COc1cccc2c1Cc1cc(-c3ccccc3)[n+](C)n1-2
4. O=C(C[n+]1ccc2ccccc2c1)c1ccc2ccc3ccccc3c2c1

Reply text:
1. > 100 µM
2. > 100 µM
3. 47.7 µM
4. 25.3 µM
